Molecular target: human PDE4D (Homo sapiens (Human))
Sequence (Q08499 other isoform, or with tags, fused parts or gaps): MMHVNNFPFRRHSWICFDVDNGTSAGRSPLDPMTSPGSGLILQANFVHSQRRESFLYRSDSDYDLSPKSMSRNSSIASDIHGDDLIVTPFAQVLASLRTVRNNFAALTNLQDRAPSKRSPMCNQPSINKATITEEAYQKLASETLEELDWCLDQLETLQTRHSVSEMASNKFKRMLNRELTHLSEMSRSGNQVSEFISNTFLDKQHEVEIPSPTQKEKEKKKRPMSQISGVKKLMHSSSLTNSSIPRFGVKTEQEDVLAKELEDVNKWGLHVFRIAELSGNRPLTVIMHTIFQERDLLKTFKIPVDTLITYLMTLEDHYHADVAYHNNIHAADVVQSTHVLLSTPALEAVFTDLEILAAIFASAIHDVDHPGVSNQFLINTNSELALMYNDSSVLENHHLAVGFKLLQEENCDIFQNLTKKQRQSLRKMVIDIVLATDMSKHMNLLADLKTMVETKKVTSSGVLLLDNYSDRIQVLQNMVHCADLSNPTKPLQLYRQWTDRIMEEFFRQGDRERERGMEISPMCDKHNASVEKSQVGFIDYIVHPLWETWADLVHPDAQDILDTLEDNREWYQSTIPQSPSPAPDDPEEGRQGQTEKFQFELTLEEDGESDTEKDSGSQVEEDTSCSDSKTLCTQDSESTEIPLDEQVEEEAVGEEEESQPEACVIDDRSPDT
Assay: PDE enzyme assay using [3H]cAMP as substrate (SPA)
Format: biochemical
Conditions: Mean ± standard deviation; [3H]cAMP 47 nM
Procedure: The nucleotide sequences encoding full-length human PDE1A (NP_001003683.1) and PDE1C (NP_005011.1) are inserted into pFastBac1 (Invitrogen) vector with an N-terminal HIS tag. […] All 3′, 5′ cyclic nucleotide PDE enzyme activities are measured with a radiometric enzyme assay based on SPA detection system. […] Samples are read 12 hours later in a MICROBETA™ TRILUX© Counter. […] The following PDE activities are measured using [3H]cAMP as reaction substrate: human PDE3A (catalytic domain) and human PDE4D. […]
measured_quantity: IC50 (µM)
Express it in µM; write the number only.

So for Cc1c(C)n2c(C3(C4CC4)CC3)nnc2c(=O)n1CC1CCCCO1 (racemic) [Example 6] , the logged IC50 turned out to be 30.9

Given item CCCCCn1c(C)c(C)n2c(C3(C4CC4)CC3)nnc2c1=O , the value recorded as its IC50 is 14.3

The recorded IC50 for entry CCCCn1c(C)c(C)n2c(C3(C4CC4)CC3)nnc2c1=O equals 29.9

IC50 for Cn1cc(Cc2cn3c(C4(C5CC5)CC4)nnc3c(=O)n2CC2CC2)cn1 is 5.59

The value of IC50 measured for the molecule Cc1c(C)n2c(C3(C4CC4)CC3)nnc2c(=O)n1CC1CC1 turned out to be 23.8

Memo: Cc1c(C)n2c(C3(C4CC4)CC3)nnc2c(=O)n1CC1(C)CC1 , reported IC50: 14

Summary for this molecule, CCCCn1c(C)c(CC)n2c(C3(C4CC4)CC3)nnc2c1=O : IC50 is 22.3

Please fill in: IC50 reported for Cc1c(C)n2c(C3(C4CC4)CC3)nnc2c(=O)n1CC1CCC1 = 24

The recorded IC50 for entry Cc1c(C)n2c(C3(C4CC4)CC3)nnc2c(=O)n1CC1CCCCO1 (single isomer, unassigned) [Example 9] equals 33.1

Cc1c(C)n2c(C3(C)CC3)nnc2c(=O)n1CC1CCCCO1 (single isomer, unassigned) [Example 14] yielded IC50 of 40.8

The molecule CCC1(c2nnc3c(=O)n(CC4CCCCO4)c(C)c(C)n23)CC1 (racemic) showed IC50 equal to 46.5
